Reference for the values: the ASAP Discovery antiviral challenge data (2025)

# tested_target: SARS-CoV-2 Mpro (UniProt P0DTD1)
parameter_measured: IC50 (nM)
Quick reminder: number only, in nM, skip the unit.

Summary: O=C(NCc1cccs1)[C@@H]1CN(C(=O)c2cccnc2)CCN1c1ccc(Cl)c(Cl)c1 , SARS-CoV-2 Mpro (UniProt P0DTD1), IC50 = 123
